Listing of recorded inhibition by entry.
biological target: Glucose transporter (Leishmania mexicana) (UniProt O61059); experiment: ST_JUDE_LEISH: Cytotoxicity at 2uM final concentration against transgenic Leishmania Mexicana promastigotes LmGT2 that are glucose transport deficient and complemented with the L. Mexicana glucose transporter 2. Activity is measured by DNA content using SYBR green in vitro; assay type: functional
Outcome measure: inhibition (%)

>>> value_reported("COc1ccccc1C1CCN(CCCCNC(=O)c2ccc(NC(=O)c3ccc(Cl)cc3)cc2)CC1")
2.05
>>> value_reported("COc1ccc(CNCc2ccc(-c3ccc(-c4nc5cc(F)ccc5[nH]4)cc3)cc2)cc1")
1.74
>>> value_reported("Cc1cc(=NN=Cc2cccc(F)c2)c2cccc(C)c2[nH]1")
0.78
>>> value_reported("O=C(/C=C/c1c(Cl)cccc1Cl)NC1CCC(CN2CCC(c3c[nH]c4ccncc34)CC2)CC1 (stereo not given)")
4.84
>>> value_reported("NC1CCCN(Cc2cccc(-c3cccc(-c4nc5ccccc5[nH]4)c3)c2)C1 (stereo not given)")
5.75
>>> value_reported("COc1ccc(CC(C)CON2C(N)=NC(N)=NC2(C)C)cc1 (stereo not given)")
4.04
>>> value_reported("c1ccc(-c2[nH]c3ccccc3c2CN2CCC(N3CCCCC3)CC2)nc1")
-1.64
>>> value_reported("CC(CN(C)C)C(=O)Nc1ccc(-c2cccc(-c3nc4cc(C(F)(F)F)ccc4[nH]3)c2)cc1 (stereo not given)")
-2.14
>>> value_reported("Cc1ccccc1C(=O)Nc1cccc(-c2nc3ncccn3c2C)c1")
1.25
>>> value_reported("Clc1nc(Cl)c2c(ccn2Cc2ccccc2)n1")
2.54

* * *

Catalogue of inhibition values
target: Glucose transporter (Leishmania mexicana) (UniProt O61059); experiment: ST_JUDE_LEISH: Cytotoxicity at 2uM final concentration against transgenic Leishmania Mexicana promastigotes LmGT2 that are glucose transport deficient and complemented with the L. Mexicana glucose transporter 2. Activity is measured by DNA content using SYBR green in vitro; assay type: functional
Outcome measure: inhibition (%)

>>> value_reported("Cc1nc(N)nc(N)c1CCCOc1cccc(Cl)c1")
-0.98
>>> value_reported("Cn1nc(C(F)(F)F)c(-c2ccc(Br)cc2)c1NC(=O)Nc1ccc(F)cc1F")
1.25
>>> value_reported("CC(C)CCN1CCCN(Cc2cccc(C(=O)Nc3ccc(C(C)(C)C)cc3)c2)CC1")
2.78
>>> value_reported("O=C(/C=C/c1cccc(C(F)(F)F)c1)NCCCCCN1CCN(C(=O)Nc2ccc(Cl)c(Cl)c2)CC1")
1.97
>>> value_reported("CCOc1cc(C(C)C)ccc1N1CCN(CCCCNC(=O)c2ccc(NC(=O)c3ccc(Cl)cc3)cc2)CC1")
2.86
>>> value_reported("CS(=O)(=O)CCNCc1cccc(-c2cc3nccc(Nc4ccc(Oc5ccccc5)cc4)c3cc2Cl)c1")
-0.97
>>> value_reported("CCOc1cc(C)ccc1C1CCN(CCCCNC(=O)c2coc(-c3ccc(Cl)cc3)c2)CC1")
2.06
>>> value_reported("Cc1cc(N[C@@H](Cc2ccccc2)C(=O)NC2CCCC2)nc(NCCc2cccs2)n1")
1.56
>>> value_reported("Cc1cc(C(=O)Nc2ccc3c(c2)CCN3C2CCN(Cc3ccc(O)cc3)C2)no1 (stereo not given)")
2.38
>>> value_reported("CCN(c1ccc(F)cc1)S(=O)(=O)c1cc(Br)cc2c1N(C(=O)C1CC1)CC2")
3.74
>>> value_reported("COc1ccc2nccc([C@@H](O)CN3CCC(NCc4cc5cccc(O)c5c(=O)[nH]4)CC3)c2c1")
1.42
>>> value_reported("C=C(F)c1sc(CNCCCNc2nc3ccccc3[nH]2)c(C)c1Br")
68.7
>>> value_reported("CCCCc1nc2nc(N)nc(N)c2cc1CCC")
1.5
>>> value_reported("CC(C)(C)c1cc(NC2CC2)nc(-c2ccccn2)n1")
4.03
>>> value_reported("COc1ccc(NC(=O)[C@H](Cc2ccccc2)Nc2cc(C)nc(NCCc3cccnc3)n2)cc1")
1.34
>>> value_reported("CN(C)Cc1cccc(-c2cc3c(-c4cnn(C)c4)c(Cl)cnc3[nH]2)c1")
94.2
>>> value_reported("COc1ccc2nccc([C@@H](O)CN3CCC(NCc4cc5cccc6c5n(c4=O)CCC6)CC3)c2c1")
2.27
>>> value_reported("CN1CCC(NCc2cccc(-c3ccc(S(=O)(=O)NCCN4CCCC4)s3)c2)CC1")
0.76
>>> value_reported("COc1ccc2nccc([C@@H](O)CN3CCC(NCCOc4cccc(C(F)(F)F)c4)CC3)c2c1")
0.73
>>> value_reported("Oc1cc(Nc2ccnc3cc(-c4cccc(CN5CCOCC5)c4)ccc23)c(F)cc1Cl")
3.67

* * *

molecular target: Hexose transporter 1 (Plasmodium falciparum) (UniProt O97467); assay: ST_JUDE_LEISH: Cytotoxicity at 2uM final concentration against transgenic Leishmania Mexicana promastigotes LmPfHT that are glucose transport deficient and complemented with the Plasmodium falciparum hexose transporter. Activity is measured by DNA content using SYBR green in vitro; assay type: functional
Response key: criterion met means inhibition >= 1%; criterion not met means inhibition < 1%.

>>> answer_label("CCc1ccc(NC(=O)c2ccc(CN3CCCN(CCC(C)C)CC3)cc2)cc1")
"criterion met"
>>> answer_label("COc1ccc(NC(=O)Nc2ccc(-c3ccncc3)c(C(F)(F)F)c2)cc1N1CCN(C)CC1")
"criterion met"
>>> answer_label("COc1ccc(NCc2cccc(-c3cccc(CNCCc4ccccc4)c3)c2)cc1")
"criterion not met"
>>> answer_label("O=C(c1cc(C(=O)NC2CCCCC2)c(=O)n(C2CCCCC2)c1)c1cc(F)ccc1O")
"criterion met"
>>> answer_label("COc1cc(C2=NN(S(=O)(=O)c3c(C)cc(C)cc3C)CCCC2)ccc1Cl")
"criterion met"

* * *

Recorded inhibition, one value per entry.
target: Solute carrier family 2, facilitated glucose transporter member 1 (Homo sapiens) (UniProt P11166); assay: ST_JUDE_LEISH: Cytotoxicity at 2uM final concentration against transgenic Leishmania Mexicana promastigotes LmGLUT1 that are glucose transport deficient and complemented with the human glucose transporter GLUT1. Activity is measured by DNA content using SYBR green in vitro; type: functional
Sequence (P11166 whole entry): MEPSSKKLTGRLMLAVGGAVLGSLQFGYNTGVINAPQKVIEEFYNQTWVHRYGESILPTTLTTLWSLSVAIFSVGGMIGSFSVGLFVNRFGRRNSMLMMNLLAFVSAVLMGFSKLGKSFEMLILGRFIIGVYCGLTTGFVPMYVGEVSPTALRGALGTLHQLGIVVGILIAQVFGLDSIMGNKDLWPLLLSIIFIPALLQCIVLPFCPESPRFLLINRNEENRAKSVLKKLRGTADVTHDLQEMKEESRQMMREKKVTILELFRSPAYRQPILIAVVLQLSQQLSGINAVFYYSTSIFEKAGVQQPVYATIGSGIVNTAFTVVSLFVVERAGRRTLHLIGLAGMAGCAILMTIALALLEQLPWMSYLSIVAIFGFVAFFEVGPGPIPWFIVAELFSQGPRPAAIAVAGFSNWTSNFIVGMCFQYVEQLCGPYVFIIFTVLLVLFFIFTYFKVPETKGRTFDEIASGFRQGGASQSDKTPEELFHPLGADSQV
Outcome measure: inhibition (%)

>>> value_reported("O=C(NC1CCN(Cc2ccc(O)cc2)CC1)c1ccc(Cl)c(Cl)c1")
4.53
>>> value_reported("COc1cc2nc(NCCc3cccc(Cl)c3)nc(NCc3ccccc3)c2cc1OC")
5.15
>>> value_reported("COc1ccc2c(=NN=Cc3ccccc3F)cc(C)[nH]c2c1")
1.77
>>> value_reported("CCN(c1ccccc1)S(=O)(=O)c1ccc(NC(=O)c2cc(-c3cc(C)ccc3O)n[nH]2)cc1")
-1.82
>>> value_reported("CN1CCCc2ccc(NC(=O)c3ccc(-c4cc(C(F)(F)F)nn4C)s3)cc2C1")
2.28
>>> value_reported("CCN(CCCN1CCCCC1)c1cc(C)nc(Nc2cccc(OC(F)(F)F)c2)n1")
1.17
>>> value_reported("N#Cc1cccc(Nc2ncc3c(-c4cccc(NC(=O)Cc5cccc(Cl)c5)c4)c[nH]c3n2)c1")
3.15
>>> value_reported("O=C(Nc1cc(C(F)(F)F)cc(C(F)(F)F)c1)Nc1cc(C(F)(F)F)cc(C(F)(F)F)c1")
1.91
>>> value_reported("COc1ccc(-n2nc(C)cc2C(=O)NCc2ccc(-c3c(C)noc3C)cc2)cc1")
2.56
>>> value_reported("CN(c1ccc(NC(=O)c2cccc(F)c2)cc1)C1CCCN(Cc2cccc(O)c2)C1 (centres undefined)")
-0.85
>>> value_reported("CC1CN(c2cnn(C/C=C/c3ccc(NC(=O)c4ccc5nonc5c4)cc3)c(=O)c2Cl)CC(C)N1 (centres undefined)")
4.72
>>> value_reported("c1cn(-c2ccc(CNc3nccc(Nc4ccc(OCCN5CCOCC5)cc4)n3)cc2)cn1")
-0.35
>>> value_reported("CC(=O)Nc1cccc(C(=O)Nc2cccc(-c3ccc(-c4nc5cccc(C)c5[nH]4)cc3)c2)c1")
0.33
>>> value_reported("CC(C(=O)N1CCCC1)N1CCN(S(=O)(=O)c2ccc(C(C)(C)C)cc2)CC1 (centres undefined)")
-0.57
>>> value_reported("COc1cccc2cc(C(=O)N[C@@H](CC(C)C)C(=O)Nc3cc(F)ccc3Br)oc12")
1.51
>>> value_reported("CC(C)c1ccc(S(=O)(=O)N(c2ccc3c(c2)OCO3)C2CCN(Cc3ccccc3)C2)cc1 (centres undefined)")
-0.01
>>> value_reported("Cc1ccccc1C1CCN(C2CCC(NC(=O)c3ccc(-c4ccccc4F)o3)CC2)CC1 (centres undefined)")
3.69
>>> value_reported("Cc1ccc(N2CCc3c(-c4cc5cccnc5nc4C)cc(C)nc32)c(Cl)c1")
4.06
>>> value_reported("O=C(c1cc(-c2cccs2)n[nH]1)N1CCN(S(=O)(=O)c2ccc(Cl)s2)CC1")
3.98

These data points were gathered from ChEMBL document CHEMBL3433997.
